Source listed as ChEMBL document CHEMBL4411309.

Assign Tmax to each entry below.
- assay_explanation: Tmax in Sprague-Dawley rat at 10 mg/kg, po administered via gavage by LC-MS/MS analysis
- Assay type: ADME, organism-based
- applied_conditions: in vivo
// return the numeric value with its unit appended

## Task Return reported Tmax; argument: Cl.O=C(NC[C@H](O)CN1CCc2ccccc2C1)c1ccc2c(c1)CCN(C(=O)c1ccc(Br)cc1)C2
## Result 35 min

## Task Return reported Tmax; argument: CN(C)c1ccc(C(=O)N2CCc3cc(C(=O)NC[C@H](O)CN4CCc5ccccc5C4)ccc3C2)cc1.Cl
## Result 20 min

## Task Return reported Tmax; argument: COc1ccc(C(=O)N2CCc3cc(C(=O)NC[C@H](O)CN4CCc5ccccc5C4)ccc3C2)cc1.Cl
## Result 25 min
